- system_name: T1, hAMY3R (human, UniProt P30988)
- T1 sequence 1: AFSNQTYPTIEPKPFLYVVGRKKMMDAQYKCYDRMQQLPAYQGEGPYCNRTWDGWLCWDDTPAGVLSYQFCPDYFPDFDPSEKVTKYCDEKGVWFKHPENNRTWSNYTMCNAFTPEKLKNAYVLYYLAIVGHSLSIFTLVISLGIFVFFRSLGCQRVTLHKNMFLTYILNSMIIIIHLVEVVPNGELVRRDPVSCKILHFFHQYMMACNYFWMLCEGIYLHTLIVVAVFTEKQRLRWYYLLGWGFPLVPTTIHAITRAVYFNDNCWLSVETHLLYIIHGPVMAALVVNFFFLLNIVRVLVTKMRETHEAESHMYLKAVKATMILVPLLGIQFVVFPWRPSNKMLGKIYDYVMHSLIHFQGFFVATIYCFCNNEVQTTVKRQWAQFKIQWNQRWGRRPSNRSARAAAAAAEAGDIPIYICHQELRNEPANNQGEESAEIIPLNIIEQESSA
- T1 sequence 2: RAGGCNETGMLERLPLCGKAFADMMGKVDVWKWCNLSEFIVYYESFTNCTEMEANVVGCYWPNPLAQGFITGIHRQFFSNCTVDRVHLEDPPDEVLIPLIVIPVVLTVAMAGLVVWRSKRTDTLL
- experiment: cell-based or functional assay
Bridge positions count the residues as written; N and C are the ends. Square brackets hold non-standard residues; d marks the D form. Ends that are not written are not given here. Hyp = O=C(O)[C@@H]1C[C@@H](O)CN1
measurement_name: hAMY3R EC50 (cAMP) (nM)
State the answer as a number, implicitly in nM.

## Input State the recorded hAMY3R EC50 (cAMP) for this entry: KCNTATCTVQWLAHQIYQFTDKDKDNVAPRTKVGSNG[Hyp]-NH2 (disulfide 2-7 (inferred); ends not checked) [SEQ ID NO: 312]
## Output 0.012

## Input State the recorded hAMY3R EC50 (cAMP) for this entry: KCNTATCTVQWLAHQIYQFTKDKDNVAPPTNVGSNG[Hyp]-NH2 (disulfide 2-7 (inferred); ends not checked) [SEQ ID NO: 317]
## Output 0.004

## Input State the recorded hAMY3R EC50 (cAMP) for this entry: GCRTGTCTVQWLAHQIYQFTDKDKDNVAPRTNVGPNGY [SEQ ID NO: 332]
## Output 0.007

## Input State the recorded hAMY3R EC50 (cAMP) for this entry: GCRFGTCTVQRLAHQIYQFTDKDKDNVAPRTNVSPNGY [SEQ ID NO: 98]
## Output 0.017

## Input State the recorded hAMY3R EC50 (cAMP) for this entry: GCRFGTCTVQRLAHQIYQFTDKDKDNVAPRTNIGPQG[Hyp]-NH2 (disulfide 2-7 (inferred); ends not checked) [SEQ ID NO: 46]
## Output 0.011

Data credit: patent US12139520B2
